targetOrTestSystem: Hck (UniProt P08631)
Sequence (P08631 whole entry, looked up): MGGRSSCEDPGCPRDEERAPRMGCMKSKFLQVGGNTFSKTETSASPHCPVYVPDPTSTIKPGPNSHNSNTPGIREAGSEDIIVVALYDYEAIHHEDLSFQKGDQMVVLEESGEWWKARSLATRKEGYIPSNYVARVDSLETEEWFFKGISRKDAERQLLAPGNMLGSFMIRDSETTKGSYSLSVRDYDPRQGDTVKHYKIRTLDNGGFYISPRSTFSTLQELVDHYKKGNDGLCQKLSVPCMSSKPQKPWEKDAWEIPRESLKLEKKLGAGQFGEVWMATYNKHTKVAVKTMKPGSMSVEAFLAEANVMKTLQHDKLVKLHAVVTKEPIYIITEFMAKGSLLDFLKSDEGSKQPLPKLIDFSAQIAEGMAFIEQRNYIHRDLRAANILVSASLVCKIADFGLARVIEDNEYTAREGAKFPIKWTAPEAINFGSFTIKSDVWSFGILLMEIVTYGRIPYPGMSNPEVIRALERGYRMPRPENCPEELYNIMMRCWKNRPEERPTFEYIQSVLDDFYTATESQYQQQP
assayRemarks: phosphorylation enrichment, bacterial display (enrichment ratio); higher = better substrate or ligand; peptides without Tyr show the background
Label criterion met when phosphorylation enrichment is at or above 0.5; anything below gets criterion not met.

chainSequence	category
VVDVTYDDVPI [FLNB_Y1308_E1305D]	criterion met
PSDLLYILDIQ [ITGA2B_Y845]	criterion met

# bool: phosphorylation enrichment of KCCCIYEKPRS [PPP1R11_Y64_A69S] >= 0.5 criterion met

# bool: phosphorylation enrichment of EKGEEYGGGGG [TUBA1A_Y451_E447K] >= 0.5 criterion met

---

System: AncSZ
assayRemarks: phosphorylation enrichment, bacterial display (enrichment ratio); higher = better substrate or ligand; peptides without Tyr show the background
Label True when phosphorylation enrichment is at or above 0.9; anything below gets False.

Would you please look over these solved cases?
chainSequence	targetOrTestSystem	category
LKEIHYPPYTD [ALDH3B2_Y362]	AncSZ	True
KKHIPHREHKS [CSNK1G2_Y206_Y206H]	AncSZ	True
ASIVDYNIIGW [MYH7_Y588_G584S]	AncSZ	True
AGADGYGFLAP [FOXL2_Y186_YF]	AncSZ	False
PPAPRCHHSAV [LZTR1_Y119_Y119C]	AncSZ	True
ATHRGYDLDNP [MMUT_Y146_S148L]	AncSZ	False

# bool: phosphorylation enrichment of FLRKEYGGVNV [CBR3_Y81_L84V] >= 0.9 False

# bool: phosphorylation enrichment of SVGGLYRDMGA [CBX8_Y321_G317V] >= 0.9 False

# bool: phosphorylation enrichment of PDGVEYLKNDP [GRIN3A_Y831] >= 0.9 True

---

targetOrTestSystem: Fes (UniProt P07332)
Sequence (P07332 whole entry, looked up): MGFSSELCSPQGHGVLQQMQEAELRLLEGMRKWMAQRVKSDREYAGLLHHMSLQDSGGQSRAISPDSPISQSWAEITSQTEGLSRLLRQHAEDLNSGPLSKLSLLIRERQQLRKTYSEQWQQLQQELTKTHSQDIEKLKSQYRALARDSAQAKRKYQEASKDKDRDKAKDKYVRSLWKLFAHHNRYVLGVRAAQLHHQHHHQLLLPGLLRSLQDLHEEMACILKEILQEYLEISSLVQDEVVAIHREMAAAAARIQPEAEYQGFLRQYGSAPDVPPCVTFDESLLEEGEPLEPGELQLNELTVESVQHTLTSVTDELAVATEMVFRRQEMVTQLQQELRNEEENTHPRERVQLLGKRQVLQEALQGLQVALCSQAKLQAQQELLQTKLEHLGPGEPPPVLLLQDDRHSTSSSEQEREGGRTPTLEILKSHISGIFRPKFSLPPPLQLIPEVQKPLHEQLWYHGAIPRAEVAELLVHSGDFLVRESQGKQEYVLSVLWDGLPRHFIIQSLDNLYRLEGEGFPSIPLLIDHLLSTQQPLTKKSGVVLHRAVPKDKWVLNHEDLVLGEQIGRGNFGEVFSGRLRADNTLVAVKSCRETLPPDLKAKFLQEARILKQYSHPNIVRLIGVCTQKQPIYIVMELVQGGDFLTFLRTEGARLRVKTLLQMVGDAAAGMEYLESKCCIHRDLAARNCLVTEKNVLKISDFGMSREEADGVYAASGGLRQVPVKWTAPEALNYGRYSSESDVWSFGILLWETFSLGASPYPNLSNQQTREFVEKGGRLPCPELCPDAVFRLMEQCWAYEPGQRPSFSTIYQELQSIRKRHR
assayRemarks: phosphorylation enrichment, bacterial display (enrichment ratio); higher = better substrate or ligand; peptides without Tyr show the background
Can you tell me phosphorylation enrichment for the items I'm about to list?

chainSequence	targetOrTestSystem	phosphorylation enrichment
FADIAYNFRHR [PAH_Y166_G171R_YF]	Fes (UniProt P07332)	0.652
TCFDKYTGSTF [FN1_Y101_N104S_YF]	Fes (UniProt P07332)	1.12
REGAKYVSHCA [ASS1_Y113_G117C]	Fes (UniProt P07332)	0.86
SVTSTYSPALN [TP53_Y126_C124S]	Fes (UniProt P07332)	0.712

Could you tell me phosphorylation enrichment for each of these sequences? They are listed below.
1. NAGDFYDLFGG [PTPN11_Y63_T59A_YF]
2. CRAVKYLQMVG [AVPR2_Y117]
3. TDDMRYPMKSE [TGDS_Y302_N298D]
4. PDKRIYQFTAS [SKAP2_Y197_A202S]
5. RMGNLYDIDEN [GRIN2A_Y1246_D1251N]
6. LLKKVYLMLDN [STAT1_Y203_M202V]

1: 1.16; 2: 0.739; 3: 0.863; 4: 0.684; 5: 2.16; 6: 2.19

Could you tell me phosphorylation enrichment for each of these sequences? They are listed below.
1. GSERDYTFDEL [EIF2S2_Y174_E177D_YF]
2. LHQSTYQRFDV [SLC7A14_Y693_YF]

1. 1.18
2. 1.32

I am curious: what phosphorylation enrichment value has been reported for LKVQVYILGRE [ASS1_Y359_G356V] ? 5.15

---

targetOrTestSystem: FGFR3 (UniProt P22607)
Sequence (P22607 whole entry, looked up): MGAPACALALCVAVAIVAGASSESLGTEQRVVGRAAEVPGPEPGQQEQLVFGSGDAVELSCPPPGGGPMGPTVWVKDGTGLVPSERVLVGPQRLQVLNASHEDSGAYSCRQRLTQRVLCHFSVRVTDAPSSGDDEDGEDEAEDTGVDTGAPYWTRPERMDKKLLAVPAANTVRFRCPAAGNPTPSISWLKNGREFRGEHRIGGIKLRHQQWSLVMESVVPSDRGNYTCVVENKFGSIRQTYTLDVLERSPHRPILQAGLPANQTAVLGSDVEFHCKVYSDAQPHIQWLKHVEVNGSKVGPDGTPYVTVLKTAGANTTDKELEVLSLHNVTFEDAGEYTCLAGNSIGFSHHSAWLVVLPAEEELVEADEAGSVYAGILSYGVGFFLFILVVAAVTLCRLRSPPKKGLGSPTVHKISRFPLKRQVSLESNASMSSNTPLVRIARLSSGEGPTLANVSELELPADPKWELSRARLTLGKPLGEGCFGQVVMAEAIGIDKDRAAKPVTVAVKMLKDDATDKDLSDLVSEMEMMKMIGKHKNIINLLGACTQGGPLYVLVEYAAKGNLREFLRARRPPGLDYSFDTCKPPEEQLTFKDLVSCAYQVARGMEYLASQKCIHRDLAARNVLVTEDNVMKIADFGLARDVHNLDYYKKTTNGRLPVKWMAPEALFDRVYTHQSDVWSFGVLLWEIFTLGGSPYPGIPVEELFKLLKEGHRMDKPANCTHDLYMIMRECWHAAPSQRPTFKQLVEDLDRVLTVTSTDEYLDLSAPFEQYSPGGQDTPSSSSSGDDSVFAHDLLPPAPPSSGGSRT
assayRemarks: phosphorylation enrichment, bacterial display (enrichment ratio); higher = better substrate or ligand; peptides without Tyr show the background
Can you tell me phosphorylation enrichment for the items I'm about to list?
One number for each entry.

Could you tell me phosphorylation enrichment for each of these sequences? They are listed below.
1. SVTCTYSPAPN [TP53_Y126_L130P]
2. RVILRYVNPGT [LAMA3_Y791]
3. FKDYFYCWNTF [AICDA_Y146]
4. YGSSSYRGAGG [RPA2_Y14_G15R]
5. LARDIYKNDFF [ROS1_Y2110_YF]
6. WHHTFYNELRV [ACTA1_Y93]
7. KERNQYGEVMV [MMP21_Y347]
8. LHQSTYQRYDV [SLC7A14_Y693]

[0.83, 0.883, 7.02, 0.409, 0.592, 0.645, 0.463, 0.426]

Could you tell me phosphorylation enrichment for each of these sequences? They are listed below.
1. KKEGPYDVVVL [PARK7_Y67]
2. YSIDHYLGKEM [G6PD_Y202_R198S]
3. GDLTDYLMKIL [ACTA1_Y190_R185G]
4. QMVGMYASSYM [AVPR2_Y124]
5. TDDMRYPMKSE [TGDS_Y302_N298D]
6. KLCHLYQDHMQ [WNT5A_Y86]

[0.546, 0.617, 0.509, 0.783, 0.621, 0.514]

Could you tell me phosphorylation enrichment for each of these sequences? They are listed below.
1. IENKPYGMSDP [RET_Y1062_L1061P]
2. AGNPAYRSFSN [IL4R_Y497]
3. LLANAYIFVVQ [L1CAM_Y418_YF]
4. VDSNPYSRLMA [UBA5_Y53]
5. ITNVLYHVVGW [GBA_Y412_L410V]
6. DGTGRYLCNAC [GATA5_Y208_H207R]
7. AEMTGYVMTRW [MAPK13_Y182_V184M]
8. MFCAGYDTKQE [F10_Y407]

1. 0.599
2. 0.414
3. 1.18
4. 0.533
5. 5.06
6. 0.522
7. 0.885
8. 0.877

---

Test system: Fer (mouse)
assayRemarks: phosphorylation enrichment, bacterial display (enrichment ratio); higher = better substrate or ligand; peptides without Tyr show the background
Label Met when phosphorylation enrichment is at or above 0.6; anything below gets Not met.

Would you please look over these solved cases?
chainSequence	category
RSAGKYDVYLI [MECP2_Y120]	Not met
VTRAKYFIRDE [GNAS_Y339]	Not met
QRCYVYYYSYL [PTEN_Y176_R173C]	Met
ETALHYIHDGI [GATD3A_Y250]	Not met
NTGDDYDLYGG [PTPN11_Y63_Y62D]	Met

# bool: phosphorylation enrichment of EGWQVYRLGTR [MISP_Y95_A99T] >= 0.6 Not met

# bool: phosphorylation enrichment of IGEGTYGQVFK [CDK13_Y716_YF] >= 0.6 Met

---

targetOrTestSystem: MERTK (UniProt Q12866)
Sequence (Q12866 whole entry, looked up): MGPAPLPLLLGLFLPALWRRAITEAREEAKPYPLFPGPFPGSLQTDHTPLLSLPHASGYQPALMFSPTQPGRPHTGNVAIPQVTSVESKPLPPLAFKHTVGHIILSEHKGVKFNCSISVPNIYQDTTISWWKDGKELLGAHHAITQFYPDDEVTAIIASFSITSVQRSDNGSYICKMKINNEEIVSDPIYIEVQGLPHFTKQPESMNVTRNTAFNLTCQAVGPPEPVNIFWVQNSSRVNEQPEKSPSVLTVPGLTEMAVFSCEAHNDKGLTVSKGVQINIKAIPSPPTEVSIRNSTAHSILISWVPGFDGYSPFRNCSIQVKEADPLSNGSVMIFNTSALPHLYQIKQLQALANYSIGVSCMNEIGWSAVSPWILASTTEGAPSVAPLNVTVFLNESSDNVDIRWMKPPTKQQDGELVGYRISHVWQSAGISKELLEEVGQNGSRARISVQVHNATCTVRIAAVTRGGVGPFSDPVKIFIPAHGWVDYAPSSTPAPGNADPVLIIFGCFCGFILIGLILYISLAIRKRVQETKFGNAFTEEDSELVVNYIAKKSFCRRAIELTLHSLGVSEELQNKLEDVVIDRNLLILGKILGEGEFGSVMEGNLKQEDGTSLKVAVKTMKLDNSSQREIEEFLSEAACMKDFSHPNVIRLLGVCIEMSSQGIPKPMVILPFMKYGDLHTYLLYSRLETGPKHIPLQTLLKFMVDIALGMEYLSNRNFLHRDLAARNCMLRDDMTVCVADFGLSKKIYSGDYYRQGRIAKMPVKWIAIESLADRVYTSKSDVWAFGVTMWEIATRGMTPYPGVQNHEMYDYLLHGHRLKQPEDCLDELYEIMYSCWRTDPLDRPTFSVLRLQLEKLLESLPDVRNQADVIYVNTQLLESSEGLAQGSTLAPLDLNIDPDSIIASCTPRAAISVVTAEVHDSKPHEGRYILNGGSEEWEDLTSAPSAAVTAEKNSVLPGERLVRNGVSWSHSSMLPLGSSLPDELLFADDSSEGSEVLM
assayRemarks: phosphorylation enrichment, bacterial display (enrichment ratio); higher = better substrate or ligand; peptides without Tyr show the background
Can you tell me phosphorylation enrichment for the items I'm about to list?
Answers are plain numbers.

chainSequence	phosphorylation enrichment
QGRQTYLLQPA [DDR2_Y813_P815L]	0.555
NGQAVYAACQT [XDH_Y1092]	1.64

Could you tell me phosphorylation enrichment for each of these sequences? They are listed below.
1. KLPDAYERFIL [G6PD_Y437_L440F]
2. ATHRGYDLDNP [MMUT_Y146_S148L]

[0.538, 0.343]

---

targetOrTestSystem: Hck (UniProt P08631)
assayRemarks: phosphorylation enrichment, bacterial display (enrichment ratio); higher = better substrate or ligand; peptides without Tyr show the background
Label Met when phosphorylation enrichment is at or above 0.7; anything below gets Not met.

Would you please look over these solved cases?
chainSequence	category
VIEQRYNETWL [SLC2A4_Y56_S55R]	Not met
PPLMLYNPTTF [EGFR_Y270_YF]	Met

Let's switch to this sequence now.
# bool: phosphorylation enrichment of VKANTYEKYWL [GATM_Y100_P105L] >= 0.7 Not met

---

targetOrTestSystem: SHP2-C SH2;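 further: peptide library displayed on the E. coli surface as eCPX fusions, selected cells deep-sequenced, score is each peptide's frequency after selection divided by its frequency in the input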
assayRemarks: SH2 binding enrichment of the phosphorylated peptide, bacterial display (enrichment ratio); higher = better substrate or ligand; peptides without Tyr show the background
Label t when SH2 binding enrichment is at or above 0.6; anything below gets f.

Would you please look over these solved cases?
chainSequence	category
FLRKEYGGVNV [CBR3_Y81_L84V]	t
NRVEIYDKTVE [CYFIP1_Y108_E109D]	f
GGYNNYGYGSD [HNRNPH3_Y159_N163S]	f
ILGLEYSLRVP [HELZ2_Y1304]	t
RRDRDYTNLPS [CSF1R_Y923_E920D]	t

# bool: SH2 binding enrichment of LAVGDYMRRQK [ATM_Y1915_V1913G] >= 0.6 t

# bool: SH2 binding enrichment of TEALFYTDDPA [ADPRS_Y75_T79P_YF] >= 0.6 f

# bool: SH2 binding enrichment of PLKALYLQQRP [ATM_Y2969] >= 0.6 t

# bool: SH2 binding enrichment of LHQSTYQRYDV [SLC7A14_Y693] >= 0.6 t

# bool: SH2 binding enrichment of VVEVTYDDVPI [FLNB_Y1308] >= 0.6 f

# bool: SH2 binding enrichment of VDSLRYIFPKL [EIF2B3_Y92_A87V_YF] >= 0.6 t

# bool: SH2 binding enrichment of CDKEFYSVHNK [MET_Y1235_Y1230C_YF] >= 0.6 t

# bool: SH2 binding enrichment of VTRAKYFIRDE [GNAS_Y339] >= 0.6 f

# bool: SH2 binding enrichment of IFGVSYDEFRF [CFTR_Y512_YF] >= 0.6 t

# bool: SH2 binding enrichment of KPGLIYNKVNP [SPRED3_Y72_V71I] >= 0.6 t

# bool: SH2 binding enrichment of ELTAKYLNYYR [P3H4_Y181_Q186R] >= 0.6 t

# bool: SH2 binding enrichment of LNPDGYEKAFE [CPXM2_Y427_YF] >= 0.6 t

# bool: SH2 binding enrichment of PQEVMYAQLDH [KIR3DL2_Y398_T397M] >= 0.6 t

# bool: SH2 binding enrichment of KYLENYLNCLL [PLD2_Y169_R172C] >= 0.6 t

# bool: SH2 binding enrichment of SDQRRYSLIDP [CLIP2_Y972_R977P] >= 0.6 t

# bool: SH2 binding enrichment of AQESNYRLLRR [SLC20A2_Y377] >= 0.6 f

# bool: SH2 binding enrichment of GMAHNYRNSSQ [AASS_Y188] >= 0.6 f

# bool: SH2 binding enrichment of NTADFYDLFGG [PTPN11_Y63_G60A_YF] >= 0.6 t

# bool: SH2 binding enrichment of VSRGRYRPQEC [B4GALT4_Y113] >= 0.6 f

# bool: SH2 binding enrichment of CEETFYTMKMN [MASP2_Y401_V405M] >= 0.6 t
